System: Bacillus subtilis
Experiment: Agar dilution MIC (Example 2)
Assay type: cell-based
Details: agar plate, 37±1 °C, 18 to 20 hours
Protocol: Series of diluted samples (20000, 10000, 5000, 2500, 2000, 1250, 625, 313, 156, 78, 39, 20, 10, 5, 2.5, 1.25 mg/l) of the compounds of the invention were prepared using dimethylsulfoxide. A sensitive culture medium-N (Nissui Seiyaku Co.) was used for bacteria and a potato dextrose agar culture medium (Nissui Seiyaku Co.) was used for fungi. 0.5 ml of each sample was added to and mixed with 9.5 ml of the culture medium, poured into a Petri dish and solidified to obtain a plate. […]
measuredProperty: MIC (mg/L)

| entrySmiles | systemTested | measuredProperty | unitAbbreviation | number |
| --- | --- | --- | --- | --- |
| CN(Cc1ccc(C(C)(C)C)cc1)Cc1ccc(Cl)c(Cl)c1 | Bacillus subtilis | MIC | mg/L | 125 |
| CN(Cc1ccc(C(C)(C)C)cc1)Cc1c(Cl)cccc1Cl | Bacillus subtilis | MIC | mg/L | 15.6 |

A = Cc1cccc(CNCc2ccc(C(C)(C)C)cc2)c1C
B = CC(C)(C)c1ccc(CNCc2cccc(Cl)c2Cl)cc1
Ask: For this pair, A and B , which shows a numerically higher MIC? The response must carry the label of the picked entry.
Reply: A

---

Measured inhibition at 0.5 ppm by item
System: freshwater green alga (Scenedesmus pannonicus)
Assay: Inhibition of propagation of freshwater algae (Example 6)
Assay type: cell-based
Conditions: Desmodesmus pannonicus, 500ppb, 72hr, read-out: Propagation inhibiting rate (%) 500ppb 72hr
Method: A predetermined amount each of the compounds of the invention was dissolved in a culture medium containing 10^5 /ml of a freshwater alga at a logarithmic growth phase to prepare samples having a concentration of the compound of the invention in the medium of 500 ppb and 50 ppb respectively. […] After 72 hours and 168 hours, the […] of cells was measured using a hemacytometer to obtain propagation rate. The propagation inhibiting rate was calculated from comparison with the non-treated lot. […]
# number only, unit % dropped from output

| compound | unitAbbreviation | number |
| --- | --- | --- |
| Cc1cc(C)cc(CN(C)Cc2ccc(C(C)(C)C)cc2)c1 | % | 91 |
| CN(Cc1ccc(C(C)(C)C)cc1)C1CCc2ccccc21 (stereo not drawn) | % | 92 |
| Clc1ccc(CNCc2c(Cl)cccc2Cl)cc1Cl | % | 95 |

Ask: Give inhibition at 0.5 ppm (freshwater green alga (Scenedesmus pannonicus)) of the following compound: Cc1ccc(C)c(CN(C)Cc2ccc(C(C)(C)C)cc2)c1
Reply: 72

Ask: Query inhibition at 0.5 ppm on freshwater green alga (Scenedesmus pannonicus) for CC(C)Cc1ccc(CN(C)Cc2cccc3ccccc23)cc1
Reply: 83

Ask: Notebook: pull reported inhibition at 0.5 ppm for freshwater green alga (Scenedesmus pannonicus), entry Cc1cccc(C)c1CN(C)Cc1ccc(C(C)(C)C)cc1
Reply: 76

---

test system: freshwater green alga (Scenedesmus pannonicus); assay: Inhibition of propagation of freshwater algae (Example 6); format: cell-based; conditions: Desmodesmus pannonicus, 500ppb, 168hr, read-out: Propagation inhibiting rate (%) 500ppb 168hr
measuredProperty: inhibition at 0.5 ppm (%)
Kindly answer with a numeric value in %, unit omitted.

Examples with answers:
| compound | inhibition at 0.5 ppm / % |
| --- | --- |
| Cc1cccc(C)c1CN(C)Cc1ccc(C(C)(C)C)cc1 | 78 |
| CN(Cc1ccc(Cl)cc1)Cc1cccc2ccccc12 | 79 |
| Clc1ccc(CNCc2c(Cl)cccc2Cl)cc1Cl | 98 |

Ask: Provide the documented inhibition at 0.5 ppm with freshwater green alga (Scenedesmus pannonicus) as the system for CC(c1ccccc1Cl)N(C)Cc1ccc(C(C)(C)C)cc1 (stereo not shown)
Reply: 85

---

Entries and their inhibition at 0.5 ppm values follow.
test system: freshwater green alga (Selenastrum capricornutum); test: Inhibition of propagation of freshwater green alga (Example 4); format: cell-based; details: 500ppb, after 72 hours, cell number vs non-treated lot, read-out: Propagation inhibiting rate(%) 500ppb
Respond numerically; units are % and should not be typed.

Sample answers from the record:
| entrySmiles | unitAbbreviation | inhibition at 0.5 ppm |
| --- | --- | --- |
| CN(Cc1c(Cl)cccc1Cl)Cc1cccc2ccccc12 | % | 77 |
| Clc1ccc(CNCc2cccc3ccccc23)cc1Cl | % | 97 |
| Cc1cccc(CNCc2ccc(C(C)(C)C)cc2)c1C | % | 89 |
| CN(Cc1ccc(C(C)(C)CCl)cc1)Cc1cccc2ccccc12 | % | 94 |
| CC(C)(C)c1ccc(CNCc2ccc(Cl)c(Cl)c2)cc1 | % | 98 |
| Cc1ccc(CN(C)Cc2cccc3ccccc23)cc1 | % | 90 |

Ask: Could you tell me which inhibition at 0.5 ppm is on file for CN(Cc1ccc(C(C)(C)C)cc1)Cc1cc(Cl)cc(Cl)c1 ?
Reply: 94

Ask: May I ask what inhibition at 0.5 ppm has been recorded for CC(C)Oc1ccc(CN(C)Cc2cccc3ccccc23)cc1 ?
Reply: 71

Ask: If you can, please state the reported inhibition at 0.5 ppm value of Cc1cc(C)cc(CN(C)Cc2ccc(C(C)(C)C)cc2)c1 .
Reply: 96

Ask: Could you tell me which inhibition at 0.5 ppm is on file for CN(Cc1ccc(C(C)(C)C)cc1)Cc1cccc2ccccc12 ?
Reply: 94

---

test system: seawater diatom [Nitzschia closterium]; experiment: Inhibition of propagation of seawater diatom (Example 5); assay type: cell-based; details: Cylindrotheca closterium, 72 h, read-out: Propagation inhibiting rate(%) 500ppb
measuredProperty: inhibition at 0.5 ppm (%)
Dear colleague, please return just the value in %, with no unit written.

Observe how each entry below is paired with its result.
| compound | systemTested | number |
| --- | --- | --- |
| Clc1ccc(CNCc2cccc3ccccc23)cc1Cl [Compound 49] | seawater diatom [Nitzschia closterium] | 100 |
| CC(C)(C)c1ccc(CNCc2cccc(Cl)c2Cl)cc1 [Compound 16] | seawater diatom [Nitzschia closterium] | 80 |
| CC(C)c1ccc(CN(C)Cc2cccc3ccccc23)cc1 [Compound 29] | seawater diatom [Nitzschia closterium] | 76 |
| CN(Cc1ccc(C(C)(C)C)cc1)C1CCc2ccccc21 (centres unmarked) [Compound 7] | seawater diatom [Nitzschia closterium] | 91 |

Ask: Looking for the measured inhibition at 0.5 ppm of Cc1cccc(CNCc2ccc(C(C)(C)C)cc2)c1C [Compound 27] , can you help?
Reply: 90

Ask: inhibition at 0.5 ppm for CC(C)(C)c1ccc(CNCc2ccc(Cl)c(Cl)c2)cc1 [Compound 34] ?
Reply: 100

Ask: Would you mind telling me what inhibition at 0.5 ppm value was observed for Cc1cccc(CN(C)Cc2ccc(C(C)(C)C)cc2)c1C [Compound 4] ?
Reply: 70

Ask: Look up inhibition at 0.5 ppm for this compound: CN(Cc1c(Cl)cccc1Cl)Cc1cccc2ccccc12 [Compound 48]
Reply: 77

---

Listed here are compounds together with their documented inhibition at 0.5 ppm.
tested on: freshwater green alga (Selenastrum capricornutum); assay: Inhibition of propagation of freshwater green alga (Example 4); assay type: cell-based; conditions: 500ppb, after 72 hours, cell number vs non-treated lot, read-out: Propagation inhibiting rate(%) 500ppb
Answer in %, number only, no unit symbol.

| compound | number |
| --- | --- |
| CN(Cc1ccc(C(C)(C)C)cc1)C1CCCc2ccccc21 (stereo not shown) | 70 |
| CC(C)c1ccc(CN(C)Cc2cccc3ccccc23)cc1 | 96 |
| Clc1ccc(CNCc2c(Cl)cccc2Cl)cc1Cl | 94 |
| CN(Cc1ccc(Cl)cc1)Cc1cccc2ccccc12 | 95 |
| CN(Cc1ccc(C(C)(C)C)cc1)C1CCc2ccccc21 (stereo not shown) | 62 |

Ask: Report inhibition at 0.5 ppm for CN(Cc1cc(Cl)cc(Cl)c1)Cc1cccc2ccccc12 tested on freshwater green alga (Selenastrum capricornutum).
Reply: 61

Ask: Form: Entry = COc1cccc(CN(C)Cc2ccc(C(C)(C)C)cc2)c1 | System = freshwater green alga (Selenastrum capricornutum) | inhibition at 0.5 ppm = ____
Reply: 92

Ask: Given the entry CN(Cc1ccc(C(C)(C)C)cc1)Cc1cccc(Cl)c1 , what inhibition at 0.5 ppm was observed with freshwater green alga (Selenastrum capricornutum)?
Reply: 95

Ask: API: value(readout=inhibition at 0.5 ppm, system=freshwater green alga (Selenastrum capricornutum)) for record CC(c1ccccc1Cl)N(C)Cc1ccc(C(C)(C)C)cc1 (stereo not shown)
Reply: 94

Ask: // map Cc1cccc(CN(C)Cc2ccc(C(C)(C)C)cc2)c1C to recorded inhibition at 0.5 ppm (system: freshwater green alga (Selenastrum capricornutum))
Reply: 95

---

tested on: freshwater green alga (Selenastrum capricornutum); assay: Inhibition of propagation of freshwater green alga (Example 4); format: cell-based; settings: 500ppb, after 72 hours, cell number vs non-treated lot, read-out: Propagation inhibiting rate(%) 500ppb
measuredProperty: inhibition at 0.5 ppm (%)
The answer is to be given in %; state only the numeric part.

| compound | measuredProperty | unitAbbreviation | number |
| --- | --- | --- | --- |
| Cc1cccc(CN(C)Cc2ccc(C(C)(C)C)cc2)c1 | inhibition at 0.5 ppm | % | 93 |

Let's switch to this compound now.
Ask: // lookup inhibition at 0.5 ppm for CN(Cc1ccc(C(C)(C)C)cc1)Cc1ccccc1Cl
Reply: 83

Source of measurements: patent EP1059033A1
